From: ChEMBL document CHEMBL1139621

- measured-on: Cathepsin K (Homo sapiens, UniProt P43235)
- Sequence (P43235 whole entry): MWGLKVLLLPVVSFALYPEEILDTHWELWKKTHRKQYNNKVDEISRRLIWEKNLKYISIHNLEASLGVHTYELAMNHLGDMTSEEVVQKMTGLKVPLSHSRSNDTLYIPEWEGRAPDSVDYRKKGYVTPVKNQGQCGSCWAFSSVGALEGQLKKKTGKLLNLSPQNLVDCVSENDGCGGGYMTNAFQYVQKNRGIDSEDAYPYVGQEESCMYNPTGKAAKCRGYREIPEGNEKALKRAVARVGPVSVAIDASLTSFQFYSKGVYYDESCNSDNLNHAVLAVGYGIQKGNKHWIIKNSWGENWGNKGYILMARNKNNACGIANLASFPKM
- assay-protocol: Inhibition constant against human cathepsin K in fluorescence assay using Cbz-Phe-Arg-AMC
Ki values, listed per item

| smiles-repr | measured-on | comparison-sign | Ki [nM] |
| --- | --- | --- | --- |
| C[C@@H](CC1CCCCC1)OC(=O)NN(C#N)Cc1ccccc1 | Cathepsin K (Homo sapiens, UniProt P43235) | = | 0.006 |
| C[C@@H](CC1CCCCC1)OC(=O)CN(C)C#N | Cathepsin K (Homo sapiens, UniProt P43235) | = | 26 |
| CC[C@@H](Cc1ccccc1)OC(=O)NN(C)C#N | Cathepsin K (Homo sapiens, UniProt P43235) | = | 0.032 |
| C[C@@H](C#N)NC(=O)O[C@@H](C)CC1CCCCC1 | Cathepsin K (Homo sapiens, UniProt P43235) | > | 13000 |
| C[C@@H](CC1CCCCC1)OC(=O)[C@H](C)N(C)C#N | Cathepsin K (Homo sapiens, UniProt P43235) | = | 2300 |
| CCCCN(C#N)NC(=O)O[C@@H](C)CC1CCCCC1 | Cathepsin K (Homo sapiens, UniProt P43235) | = | 0.007 |
| C[C@@H](CC1CCCCC1)OC(=O)NN(C#N)C(C)(C)C | Cathepsin K (Homo sapiens, UniProt P43235) | = | 1500 |
| CC(C)CN(C#N)NC(=O)O[C@@H](C)CC1CCCCC1 | Cathepsin K (Homo sapiens, UniProt P43235) | = | 0.004 |
| C[C@H](C(=O)O[C@@H](C)CC1CCCCC1)N(C)C#N | Cathepsin K (Homo sapiens, UniProt P43235) | > | 13000 |
| CC(C)N(C#N)NC(=O)O[C@@H](C)CC1CCCCC1 | Cathepsin K (Homo sapiens, UniProt P43235) | = | 0.019 |
| C[C@@H](CC1CCCCC1)OC(=O)N(C)N(C)C#N | Cathepsin K (Homo sapiens, UniProt P43235) | = | 62 |
| C[C@H](C#N)NC(=O)O[C@@H](C)CC1CCCCC1 | Cathepsin K (Homo sapiens, UniProt P43235) | > | 13000 |
| C[C@@H](CC1CCCCC1)OC(=O)NCC#N | Cathepsin K (Homo sapiens, UniProt P43235) | = | 7900 |
| CCCN(C#N)NC(=O)O[C@@H](C)CC1CCCCC1 | Cathepsin K (Homo sapiens, UniProt P43235) | = | 0.004 |
| C[C@@H](CC1CCCCC1)OC(=O)NN(C)C#N | Cathepsin K (Homo sapiens, UniProt P43235) | = | 0.009 |
| CCN(C#N)NC(=O)O[C@@H](C)CC1CCCCC1 | Cathepsin K (Homo sapiens, UniProt P43235) | = | 0.003 |
| C[C@@H](CC1CCCCC1)NC(=O)CN(C)C#N | Cathepsin K (Homo sapiens, UniProt P43235) | = | 830 |

====

- measured-on: Pro-cathepsin H (Homo sapiens)
- Sequence (P09668 whole entry): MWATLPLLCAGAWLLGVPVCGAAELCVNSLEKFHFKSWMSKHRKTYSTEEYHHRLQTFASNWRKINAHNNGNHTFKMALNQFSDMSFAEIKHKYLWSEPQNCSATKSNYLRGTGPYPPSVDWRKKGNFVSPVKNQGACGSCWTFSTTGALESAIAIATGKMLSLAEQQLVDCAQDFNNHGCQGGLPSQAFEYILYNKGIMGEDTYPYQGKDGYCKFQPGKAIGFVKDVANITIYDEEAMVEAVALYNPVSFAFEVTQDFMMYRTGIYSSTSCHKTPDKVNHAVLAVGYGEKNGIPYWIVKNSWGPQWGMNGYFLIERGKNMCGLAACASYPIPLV
measured-quantity: Ki (nM)

| smiles-repr | measured-on | endpoint-value |
| --- | --- | --- |
| CC(C)N(C#N)NC(=O)O[C@@H](C)CC1CCCCC1 | Pro-cathepsin H (Homo sapiens) | 0.46 |
